Sourced from patent US20230011916A1

Target: T1, full-length human OX40 expressed on HuT78 cells (HuT78/OX40) (human, UniProt P43489 29-277)
T1 sequence: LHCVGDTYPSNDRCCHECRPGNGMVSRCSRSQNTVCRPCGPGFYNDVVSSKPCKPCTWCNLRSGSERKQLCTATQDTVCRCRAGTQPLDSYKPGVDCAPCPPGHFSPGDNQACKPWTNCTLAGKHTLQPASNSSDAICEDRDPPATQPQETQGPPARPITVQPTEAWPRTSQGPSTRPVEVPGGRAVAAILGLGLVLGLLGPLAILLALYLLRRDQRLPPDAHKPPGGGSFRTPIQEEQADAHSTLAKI
Test: FACS; cells not named on the sheet, HuT78/OX40 cells as in Example 5
readout: Top(MFI)
Express the result in MFI but write the number alone.

Please review the entries below; each comes with its answer.
binder	unit abbrev	recorded result
445-1-2(S10T/E81D/D70E) (antibody, human IgG1, V domains shown) VH: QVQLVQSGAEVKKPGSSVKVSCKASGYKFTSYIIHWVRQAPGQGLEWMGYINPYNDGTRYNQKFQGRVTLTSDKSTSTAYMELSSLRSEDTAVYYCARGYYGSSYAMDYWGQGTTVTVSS VL: DIQMTQSPSTLSASVGDRVTITCSASQGISNYLNWYQQKPGKAIKLLIYDTSTLYSGVPSRFSGSGSGTEYTLTISSLQPDDFATYYCQQYSKLPYTFGGGTKVEIK	MFI	510
445-1-2(S24G) (antibody, human IgG1, V domains shown) VH: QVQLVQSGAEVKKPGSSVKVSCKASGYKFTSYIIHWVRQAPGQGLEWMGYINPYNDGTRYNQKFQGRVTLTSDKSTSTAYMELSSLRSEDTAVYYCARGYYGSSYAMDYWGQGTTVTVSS VL: DIQMTQSPSSLSASVGDRVTITCGASQGISNYLNWYQQKPGKAIKLLIYDTSTLYSGVPSRFSGSGSGTDYTLTISSLQPEDFATYYCQQYSKLPYTFGGGTKVEIK	MFI	470

Query block: Query Top(MFI) for 445-1 (antibody, V domains shown) VH: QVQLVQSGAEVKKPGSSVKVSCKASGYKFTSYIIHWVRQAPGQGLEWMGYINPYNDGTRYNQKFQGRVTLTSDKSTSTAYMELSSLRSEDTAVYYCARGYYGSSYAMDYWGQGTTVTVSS VL: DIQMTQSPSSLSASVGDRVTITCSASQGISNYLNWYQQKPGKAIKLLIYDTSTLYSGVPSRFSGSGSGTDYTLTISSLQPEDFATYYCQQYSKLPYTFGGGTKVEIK
Result block: 500
